Test system: ACHN renal
Assay: NCI-60 one-dose screen, 48 h (100 = growth as untreated, 0 = no growth, -100 = all killed)
Conditions: 10 µM unless noted
Method: Growth inhibition of the ACHN human tumor cell line is measured as a screen for anti-cancer activity. Cells are grown in 96 well plates and exposed to the test compound for 48 hours. Compounds are tested at a single concentration, which is 10^-5 M for most compounds. The reported endpoint is percent growth (GI% or GIPRCNT), where numbers from 0 - 100% represent growth inhibition, and numbers from -100% - 0 represent cell death. For example, a value of 40 represents 60% growth inhibition. […]
The panel holds about 83,000 compounds, 20% with a hit somewhere; the sample as a whole holds those more often.
metric: growth (%)
One number for each entry, in %.

Below, 4 compounds whose answers are already recorded.
Cc1cc(C)cc(C(=O)Nc2cccc(-c3cn(-c4ccc(S(N)(=O)=O)cc4)nn3)c2)c1 | 22.5
N#Cc1c(-c2cccc(O)c2O)cc(-c2ccc3ccccc3c2)[nH]c1=O | 56.4
CC12CC[C@@H]3[C@]4(C)COC(c5cn[nH]c5-c5ccc(Br)cc5)O[C@@H]4CC[C@@]3(C)[C@@H]1CC(C1=CCOC1=O)O2 (some centres undefined) | 47
CN(C)CCOc1ccc(C(=O)C2[C@H](c3ccc(Cl)cc3)[C@@H](c3ccccc3)NC23C(=O)Nc2ccc(Br)cc23)cc1 (some centres undefined) | -27.9

Working through the 5 compounds below one at a time, give growth for each.
1. O=C(COc1ccc(NC(=O)Nc2ccccc2)cc1)N=Nc1c(O)[nH]c2ccc([N+](=O)[O-])cc12
2. O=C1/C(=C/C2=Cc3ccccc3OC2)SC(=S)N1c1ccccc1F
3. CSc1ccc(NC(=O)c2ccc3nnn(/C(C#N)=C/c4ccccn4)c3c2)cc1
4. Cc1cc2nc3c4ccccc4n(CC4=NCCN4)c3nc2cc1C
5. Cc1cc2nc3c([nH]c2cc1C)c1ccc(=O)cc1n3CCN(C)C

1: 96.2; 2: 107; 3: -100; 4: -100; 5: 20.4

---

tested on: HCC-2998 colon; experiment: NCI-60 one-dose screen, 48 h (100 = growth as untreated, 0 = no growth, -100 = all killed); conditions: 10 µM unless noted
About 83,000 compounds went through this panel and 20% of them were active in at least one assay; those are over-represented in the sample as a whole.
metric: growth (%)
One number for each entry, in %.

COc1ccc(NC(=O)Nc2ccc(OCc3ccc(F)cc3)cc2)cc1 | 90.8
COc1cc2oc(-c3cccc(C(=O)Nc4ccc(Cl)cc4)c3)cc(=O)c2c(OCCNC(=O)[C@H](CO)NC(=O)OC(C)(C)C)c1OC | -7.27
O=C(c1ccc(OCCN2CCOCC2)cc1)C1[C@H](c2ccc(Cl)cc2)[C@@H](c2ccccc2)NC12C(=O)Nc1ccc(Cl)cc12 (some centres undefined) | -30
CCCn1cc(-c2nc(Nc3ccc(C(=O)NCCCCNc4cccc5c4C(=O)N(C4CCC(=O)NC4=O)C5=O)cc3)nc3[nH]ccc23)cn1 (centres undefined) | 5.84
CN1CCN(c2ccc3c(c2)nc(NNC(=O)c2ncccn2)c2cccn23)CC1 | -87.7
COc1ccc(C(=O)/C=C/c2ccccc2Cl)cc1S(N)(=O)=O | 114

Working through the 3 compounds below one at a time, give growth for each.
1. C#CCOc1cc(N(CC)CC)ccc1C(C(=O)NC(C)(C)C)N(C(=O)C1CCc2cc(F)ccc2O1)c1ccc(F)cc1 (centres undefined)
2. C=C1CCC2C3(C)COC(c4ccc(F)cc4)OC3CCC2(C)C1C/C=C1/C(=O)OCC1O (centres undefined)
3. COc1ccc(/C=C/c2nc3ccccc3c(=O)n2CC(=O)Nc2ccc(OC)cc2)cc1

1: 71.9; 2: -69.7; 3: 95.6

---

tested on: SNB-75 CNS; assay: NCI-60 one-dose screen, 48 h (100 = growth as untreated, 0 = no growth, -100 = all killed); conditions: 10 µM unless noted
Compounds without any hit were thinned out: in the full panel of roughly 83,000, 20% have a hit.
Each record is given True if its reported growth is strictly below 50%. Records at or above 50% are given False.

Worked set:
CN1CCN(/C(=N\c2sc(-c3ccccc3)nc2-c2ccccc2)c2ccccc2)CC1 | False
CCN(CC)c1ccc(/C=N/Nc2nc(-c3ccc(C)cc3)cs2)c(O)c1 | False
C=C1CCC2C3(C)COC(c4ccc(F)cc4)OC3CCC2(C)C1CC(O)C1=CCOC1=O (centres undefined) | False
O=C(NNc1nc2cc(F)ccc2n2c(CN3CCCCC3)ccc12)c1cnccn1 | True
COCOc1cc2oc(C(=O)N[C@@H](Cc3ccccc3)C(O)C(=O)NCc3ccccc3)c(C)c(=O)c2cc1OCOC (some centres undefined) | True
COc1ccc(Cc2nn(CC(=O)N/N=C/c3ccc(F)cc3)c(=O)c3c(C)noc23)cc1 | True

Would you kindly verify if growth of CC(=O)OC[C@@]1(C)C2CC[C@]3(C)C(CC=C4C5CC(C)(C)CC[C@]5(C(=O)Nc5ccc(F)cc5)CC[C@]43C)[C@@]2(C)C[C@@H](OC(C)=O)[C@@H]1OC(C)=O (some centres undefined) is strictly less than 50%?
False

Would you kindly verify if growth of `CC(=O)Nc1cccc(Nc2nc(NCc3ccccc3)c3ccccc3n2)c1` is strictly less than 50%?
True

---

tested on: NCI-H322M lung; assay: NCI-60 one-dose screen, 48 h; details: 10 µM unless noted
About 83,000 compounds went through this panel and 20% of them were active in at least one assay; those are over-represented in the sample as a whole. The source made the active and inactive calls. How the source made its calls: active means growth percent below 10; inactive means the rest.
Choose the fitting class; nothing outside TRUE = active, FALSE = inactive is accepted.

CCOC(=O)c1ccc(Nc2nc(NN)nc(-c3ccc(F)cc3)c2C#N)cc1 | FALSE
Cn1cc(-c2cc3nc(-c4cn(C)c5ncc(Br)cc45)cc(N)n3n2)c2ccccc21 | TRUE
Cn1cc(-c2cc3nc(-c4c[nH]c5ccc(Cl)cc45)cc(N)n3n2)c2ccccc21 | TRUE
CC1(C)CC[C@]2(C(=O)O)CC[C@]3(C)C(=CCC4[C@@]5(C)C[C@@H](O)[C@@H]6OC(c7ccco7)OC[C@@]6(C)C5CC[C@]43C)C2C1 (stereo not given in full) | FALSE
Cc1cc(N=C2NC(=O)CS2)n[nH]1 | FALSE

Please indicate how the test categorized CC(/C=C1\SC(=S)N(CCCC(=O)NC(CC(C)C)C(=O)O)C1=O)=C\c1ccccc1 (stereo not given) .
FALSE

Please indicate how the test categorized `CC(=O)Nc1ccc(-n2cnc3ccc(-c4ccc(O)cc4)cc32)cc1` .
FALSE

Please indicate how the test categorized `CC(C)CSc1nc(NCCc2c[nH]c3ccccc23)c(C#N)c(-c2ccccc2)n1` .
FALSE

Please indicate how the test categorized Cc1ccc(C2CC(c3ccc(S(=O)(=O)NCCNc4nc(Nc5ccc(F)cc5)nc(N(C)C)n4)cc3)=Nc3c(N)nc(N)nc3N2)cc1 (stereo not given) .
FALSE

---

Task for the reader: assign each of the following molecules its reported growth.
Test system: M14 melanoma
Experiment: NCI-60 one-dose screen, 48 h (100 = growth as untreated, 0 = no growth, -100 = all killed)
Details: 10 µM unless noted
Protocol: Growth inhibition of the M14 human tumor cell line is measured as a screen for anti-cancer activity. Cells are grown in 96 well plates and exposed to the test compound for 48 hours. Compounds are tested at a single concentration, which is 10^-5 M for most compounds. The reported endpoint is percent growth (GI% or GIPRCNT), where numbers from 0 - 100% represent growth inhibition, and numbers from -100% - 0 represent cell death. For example, a value of 40 represents 60% growth inhibition. […]
About 83,000 compounds went through this panel and 20% of them were active in at least one assay; those are over-represented in the sample as a whole.
Give bare numbers, in %.

Below, 4 molecules whose answers are already recorded.
CCS(=O)(=O)N1CCCC(C(=O)Nc2nc3ccc(NC(=O)c4ccc(F)c(OC)c4F)cc3s2)C1 (stereo not given) | 78.5
COc1cc(C2CC(c3cc(OC)c(OC)c(OC)c3)=NN2C(C)=O)ccc1OCc1ccc(F)cc1 (stereo not given) | 59.9
S=C(Nc1ccccc1)Nc1ccc(OCc2nc3ccccc3[nH]2)cc1 | 36.9
COc1ccc(-c2ccc(SCC(=O)NCCc3ccc(S(N)(=O)=O)cc3)nn2)cc1 | 99.7

Pending molecule:
# return recorded growth for entry `O=c1[nH]c2ccc(Cl)cc2cc1CSc1nccc(-c2ccc(Cl)cc2)n1`
71.1

---

tested on: K-562 leukemia; test: NCI-60 one-dose screen, 48 h (100 = growth as untreated, 0 = no growth, -100 = all killed); settings: 10 µM unless noted
The panel holds about 83,000 compounds, 20% with a hit somewhere; the sample as a whole holds those more often.
Each record is given yes (1) if its reported growth is strictly below 30%. Records at or above 30% are given no (0).

COc1cc(/C=C/C(=O)c2ccc(C)cc2)ccc1Oc1nc(Nc2ccc(F)cc2)nc(N(C)C)n1 | yes (1)
Cn1cc(-c2cc(N)n3nc(-c4cn(C)c5ccccc45)cc3n2)c2cc(Cl)ccc21 | yes (1)
CCCCCCCCc1ccc(C(=O)Nc2ccc(C)cc2C(=O)O)cc1C | no (0)
O=C1NC(=O)/C(=C/c2ccccc2OCc2cc3ccccc3nc2Cl)S1 | no (0)
COc1cc2c(c(OC)c1OC)C(=O)CC(c1cccc(NC(=O)[C@@H](N)CC(C)C)c1)O2 (stereo not given in full) | no (0)

Would you kindly verify if growth of COc1ccc(CCC2c3c(cc4c(c3OC)OCO4)CCN2C)cc1 (stereo not given) is strictly less than 30%?
yes (1)

Would you kindly verify if growth of `S=c1c2ccccc2nc2n1CCc1c-2[nH]c2ccccc12` is strictly less than 30%?
no (0)

Would you kindly verify if growth of Cc1cccc(NC(=O)[C@]23CCC(C)(C)CC2C2=CCC4[C@@]5(C)C[C@@H](O)[C@H](O)[C@@](C)(CO)C5CC[C@@]4(C)[C@]2(C)CC3)c1 (stereo not given in full) is strictly less than 30%?
yes (1)

Would you kindly verify if growth of Cc1nc(Nc2ccccn2)sc1C(=O)CC(SCC(=O)Nc1ccc(Cl)cc1)c1ccccc1F (stereo not given) is strictly less than 30%?
yes (1)

Would you kindly verify if growth of `O=C(/C=C/c1cccc(OCc2ccc(F)cc2)c1)c1nc2ccccc2[nH]1` is strictly less than 30%?
yes (1)

Would you kindly verify if growth of `N#Cc1c(-c2ccc(Cl)cc2)nc2n[nH]c(-c3ccc(Cl)cc3)c2c1-c1ccc(C(F)(F)F)cc1` is strictly less than 30%?
yes (1)
